Recorded values, source patent US20100048699A1.

System: Myzus persicae
measurement notes: Myzus persicae (green peach aphid) pea seedling root uptake test
measurement setup: 144 h, read-out: control of Myzus persicae
measured quantity: pest or weed control at 24 ppm

Take a look at these entries with their results.
>>> df
                                   molecule          target  measurement
0  COc1ccccc1C(=O)OCCNC(=S)NC1CCc2c(F)cccc21 (centres unmarked)  Myzus persicae        ≥ 80%
1  O=C(OCCNC(=S)NC1CCc2c(F)cccc21)c1ccccc1C(F)(F)F (centres unmarked)  Myzus persicae        ≥ 80%

Lookup result for CCCC(C(=O)OCCNC(=S)NC1CCc2c(F)cccc21)c1ccc(Cl)cc1Cl (centres unmarked) ; measured pest or weed control at 24 ppm: ≥ 80%

Lookup result for Cc1cc(C(=O)OCCNC(=S)NC2CCc3c(F)cccc32)c(C(F)(F)F)o1 (centres unmarked) ; measured pest or weed control at 24 ppm: ≥ 80%

Lookup result for O=C(Cc1ccc(Cl)cc1)OCCNC(=S)NC1CCc2c(F)cccc21 (centres unmarked) ; measured pest or weed control at 24 ppm: ≥ 80%

Lookup result for Cc1ccccc1CC(=O)OCCNC(=S)NC1CCc2c(F)cccc21 (centres unmarked) ; measured pest or weed control at 24 ppm: ≥ 80%

Lookup result for C/C(=C\c1ccccc1)C(=O)OCCNC(=S)NC1CCc2c(F)cccc21 (centres unmarked) ; measured pest or weed control at 24 ppm: ≥ 80%

Lookup result for O=C(OCCNC(=S)NC1CCc2c(F)cccc21)c1ccc(C(F)(F)F)cc1 (centres unmarked) ; measured pest or weed control at 24 ppm: ≥ 80%
